Entry source: patent US12662489B2

- TARGET ENTITY: MTHFD2 recombinant human enzyme (Homo sapiens)
- Sequence (P13995 36-350): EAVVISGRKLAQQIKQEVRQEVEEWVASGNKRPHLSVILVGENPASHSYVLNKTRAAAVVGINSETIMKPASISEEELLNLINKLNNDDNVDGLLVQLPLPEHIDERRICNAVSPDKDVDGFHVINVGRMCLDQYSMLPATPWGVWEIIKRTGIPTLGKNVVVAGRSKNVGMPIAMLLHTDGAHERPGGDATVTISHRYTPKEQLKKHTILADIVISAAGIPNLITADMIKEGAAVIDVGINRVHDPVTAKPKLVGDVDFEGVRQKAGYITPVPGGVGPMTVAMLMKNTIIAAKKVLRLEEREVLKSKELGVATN
- ASSAY NAME: MTHFD2 inhibition assay (NAD(P)H-Glo luminescence)
- CONDITION SET: selectivity of MTHFD2 inhibition over MTHFD1, band
ENDPOINT NAME: MTHFD1/MTHFD2 IC50 ratio

Below, 5 compounds whose answers are already recorded.
COC[C@H]1CN(c2ccc3c4c(c(=O)oc3c2C)CN(C(=O)c2ccc(C(=O)NS(=O)(=O)C3(C)CC3)c(N(C)C)c2F)CC4)CCN1C
G (^ 3 to 9.0)
COC[C@H]1CN(c2cc(Cl)c3c4c(c(=O)oc3c2C)CN(C(=O)c2cc(N(C)C)c(C(=O)NS(=O)(=O)N(C3CC3)C3CC3)cc2F)CC4)CCN1C
H (>9.0 to 30)
CCOc1c(C(=O)NS(=O)(=O)N2C3CCC2CC3)ccc(C(=O)N2CCc3c(c(=O)oc4c(CC)c(N5CCN(C)[C@@H](COC)C5)ccc34)C2)c1F
F (<3)
COC[C@H]1CN(c2cc(C)c3c4c(c(=O)oc3c2C)CN(C(=O)c2ccc(C(=O)NS(=O)(=O)N3CCCC3)c(OCC(F)(F)F)c2F)CC4)CCN1C
F (<3)
COC[C@H]1CN(c2cc(C)c3c4c(c(=O)oc3c2)CN(C(=O)c2ccc(C(=O)NS(=O)(=O)N3CCCC3)c(OC3CCCC3)c2F)CC4)CCN1C
H (>9.0 to 30)

Lab book: MTHFD1/MTHFD2 IC50 ratio of COC[C@H]1CN(c2cc(Cl)c3c4c(c(=O)oc3c2C)CN(C(=O)c2cc(OC3CC3)c(C(=O)NS(=O)(=O)N(C)C)cc2F)CC4)CCN1C noted as J (>30)

Lab book: MTHFD1/MTHFD2 IC50 ratio of COC[C@H]1CN(c2ccc3c4c(c(=O)oc3c2C)CN(C(=O)c2cc(F)c(C(=O)NS(=O)(=O)N(C)C)c(N3CC5CC5C3)c2)CC4)CCN1C (stereo partly shown) noted as F (<3)

Lab book: MTHFD1/MTHFD2 IC50 ratio of COC[C@H]1CN(c2cc(C)c3c4c(c(=O)oc3c2C)CN(C(=O)c2cc(N(C)C)c(C(=O)NS(=O)(=O)N3CC[C@H](F)C3)cc2F)CC4)CCN1C noted as J (>30)

Lab book: MTHFD1/MTHFD2 IC50 ratio of COC[C@H]1CN(c2cc(F)c3c4c(c(=O)oc3c2C)CN(C(=O)c2cc(OC)c(C(=O)NS(=O)(=O)N3C5CCC3CC5)cc2F)CC4)CCN1C noted as J (>30)

Lab book: MTHFD1/MTHFD2 IC50 ratio of COC[C@H]1CN(c2cc(C)c3c4c(c(=O)oc3c2C)CN(C(=O)c2ccc(C(=O)NS(=O)(=O)N3CCCC3)c(N3CCCC3)c2F)CC4)CCN1C noted as F (<3)

Lab book: MTHFD1/MTHFD2 IC50 ratio of COC[C@H]1CN(c2cc(C)c3c4c(c(=O)oc3c2C)CN(C(=O)c2cc(N(C)C)c(C(=O)NS(=O)(=O)N3C5CCC3CC5)cc2Cl)CC4)CCN1C noted as J (>30)

Lab book: MTHFD1/MTHFD2 IC50 ratio of COC[C@H]1CN(c2cc(C)c3c4c(c(=O)oc3c2C)CN(C(=O)c2ccc(C(=O)NS(=O)(=O)N3CCCC3)cc2)CC4)CCN1C noted as J (>30)

Lab book: MTHFD1/MTHFD2 IC50 ratio of COC[C@H]1CN(c2cc(C)c3c4c(c(=O)oc3c2C)CN(C(=O)c2ccc(C(=O)NS(=O)(=O)N3CCCC3)c(N3CCCC3)c2)CC4)CCN1C noted as G (^ 3 to 9.0)

Lab book: MTHFD1/MTHFD2 IC50 ratio of CCc1c(C(=O)NS(=O)(=O)N2C3CCC2CC3)ccc(C(=O)N2CCc3c(c(=O)oc4c(C)c(N5CCN(C)[C@@H](COC)C5)cc(C)c34)C2)c1F noted as H (>9.0 to 30)

Lab book: MTHFD1/MTHFD2 IC50 ratio of COC[C@H]1CN(c2ccc3c4c(c(=O)oc3c2C)CN(C(=O)c2cc(N3CC5CC5C3)c(C(=O)NS(=O)(=O)N(C)C)c(C(F)(F)F)c2)CC4)CCN1C (stereo partly shown) noted as H (>9.0 to 30)

Lab book: MTHFD1/MTHFD2 IC50 ratio of COC[C@H]1CN(c2cc(C)c3c4c(c(=O)oc3c2C)CN(C(=O)c2cc(F)c(C(=O)NS(=O)(=O)N3CCCC3)cc2OC)CC4)CCN1C noted as J (>30)

Lab book: MTHFD1/MTHFD2 IC50 ratio of COC[C@H]1CN(c2cc(C)c3c4c(c(=O)oc3c2C)CN(C(=O)c2cc(N3CCCC3)c(C(=O)NS(=O)(=O)N3CCCC3)cc2F)CC4)CCN1C noted as F (<3)

Lab book: MTHFD1/MTHFD2 IC50 ratio of COC[C@H]1CN(c2cc(C)c3c4c(c(=O)oc3c2C)CN(C(=O)c2ccc(C(=O)NS(=O)(=O)N(C)C)c(N3CCCC(F)(F)C3)c2)CC4)CCN1C noted as F (<3)

Lab book: MTHFD1/MTHFD2 IC50 ratio of CCOc1cc(C(=O)N2CCc3c(c(=O)oc4c(C)c(N5CCN(C)[C@@H](COC)C5)cc(Cl)c34)C2)c(F)cc1C(=O)NS(=O)(=O)N1C2CCC1CC2 noted as J (>30)

Lab book: MTHFD1/MTHFD2 IC50 ratio of COC[C@H]1CN(c2cc(C)c3c4c(c(=O)oc3c2C)CN(C(=O)c2ccc(C(=O)NS(=O)(=O)N3CCCCC3)c(OC)c2F)CC4)CCN1C noted as H (>9.0 to 30)

Lab book: MTHFD1/MTHFD2 IC50 ratio of COC[C@H]1CN(c2cc(C)c3c4c(c(=O)oc3c2C)CN(C(=O)c2ccc(C(=O)NS(=O)(=O)N(C)C)c(N3CCCC3)c2)CC4)CCN1C noted as G (^ 3 to 9.0)

Lab book: MTHFD1/MTHFD2 IC50 ratio of [2H]C([2H])([2H])Oc1c(C(=O)NS(=O)(=O)N2C3CCC2CC3)ccc(C(=O)N2CCc3c(c(=O)oc4c(C)c(N5CCN(C)[C@@H](COC)C5)cc(C)c34)C2)c1F noted as J (>30)
